# experiment-description: Maximum tolerated dose by dose escalation in mice
# stated-conditions: mouse, in vivo, ip, single intraperitoneal dose, read-out: dose believed to be the maximum tolerated dose
Field: MTD. Provide a value for each of the molecules that follow.
Answers are plain numbers, in mg/kg.

Consider the worked cases shown below.
• COc1ccc2c(c1O)COCc1cc(OC)c(OC)c(OC)c1-2 [Example 3] = 270
• COc1ccc2c(c1)COCc1cc(OC)c(OC)c(OC)c1-2 [Example 1] = 60

The record that follows has no MTD shown yet.
Record request: MTD value, item COc1cc2c(c(OC)c1OC)-c1cc3c(cc1COC2)OCO3 [Example 2]
120

Where do these numbers come from? They come from patent US8178578B2.
